System: MS2 coat protein
Method: apparent KD of MS2 coat protein; designed switch direction (-1 OFF switch, 1 ON switch): -1; higher = weaker reporter binding
Condition context: input ligand: none
In this section, each of the sequences is paired with its reported apparent KD of MS2 coat protein.
Include the unit after the number when you answer.

Known apparent KD of MS2 coat protein results, listed for orientation:
Residue codes: AAACAAGCGUGAGGCUCGUCUUAAAAAGCCUCAUGAAAAACAUGAGGAUCACCCAUGUAAAAUGAUCGAAAGAUCAA [JL turnoff v2 29] (Eterna round: R96, puzzle: Sensor v2, turn-off variant 2)
Test system: MS2 coat protein
apparent KD of MS2 coat protein: 17.6 nM
//
Residue codes: AAAUAGGGAGGAUAUCCAAUAUAUGACAUGAGGAUCACCCAUGUUUCCACUCGUACCUCCGGAGAAGGCCCAUAAA [Ex5 #3] (Eterna round: R97, puzzle: Exclusion 5)
Test system: MS2 coat protein
apparent KD of MS2 coat protein: 21.8 nM
//
Residue codes: UUAAUACAUGUAGGAUAUGCGUGGCGAAGCUAUGCAGAAGGACAUGAGGAUCACCCAUGUUCUUGCGUCCGCGUACGGAUGCAA [JL Eng1 1.21 mod 4] (Eterna round: R96, puzzle: Exclusion NG 1)
Test system: MS2 coat protein
apparent KD of MS2 coat protein: 15.2 nM
//
Residue codes: GCAGUAUGAGUUAGGAUAUGAUGAUUUGAAAUGGGUCAGAAGGAACUUGAGGAUCACCCAAGUAAUGAAUUGGU [JR_BMEx4_Sub073] (Eterna round: R97, puzzle: Brourd's mod of Exclusion 4)
Test system: MS2 coat protein
apparent KD of MS2 coat protein: 52.7 nM

As a next step, examine the sequence that follows.
Specify reported apparent KD of MS2 coat protein for the sequence shown: UCUUACUGAGGAUAUACAUAGAUUUACAUGAGGAUCACCCAUGUUCCUCUAAGUAUAUAUGUAGAAGGCAGAAGAA [Mat - Exclusion 5 - JL Mod - D43] (Eterna round: R97, puzzle: Exclusion 5)
370 nM

* * *

Test system: MS2 coat protein
Method: apparent KD of MS2 coat protein; designed switch direction (-1 OFF switch, 1 ON switch): 1; higher = weaker reporter binding
Condition context: input ligand: FMN 200 uM
In this section, each of the sequences is paired with its reported apparent KD of MS2 coat protein.
Just the number in nM, nothing appended.

Residue codes: ACAUGAAAUUGAGGAUAUUUUGUACCUACAUGUGACAUGAGGAUCACCCAUGUGGUAAGUAUGAGAAAGAAGGCAAAGAUAUGU [Equivalence 11 - Jieux - Same State NG 2] (Eterna round: R96, puzzle: Same State NG 2)
Result value: 26.6
--
Residue codes: GAGUGGUAGGGAGGAUAUGCAUUGUUAUUAAAUGCAGAAGGUUUUAACAUGAGGAUCACCCAUGUAGGACUAUUCCUGUGUUUC [Parity 67 - Jieux - Same State NG 1] (Eterna round: R96, puzzle: Same State NG 1)
Result value: 12.4
--
Residue codes: GAGGAACAGGCCAACAUGAGGAUCACCCAUGUCCUCGCACUUCAGGAUAUCUGGAGGAAGAAGAAAGAGAAGGGAAGGUGAAGC [AK SSNG3-V2-34.2] (Eterna round: R96, puzzle: Same State NG 3)
Result value: 202

Specify reported apparent KD of MS2 coat protein for the sequence shown: AGGCUCAGACGAGGAUAUACGUGGUCACAUGAGGAUCACCCAUGUCUCGAGCUUCGGCUCGAGGCGUAGAAGGUGUCUGAGCCA [SSNG2/6-C1] (Eterna round: R96, puzzle: Same State NG 2)
195
